- test: qHTS profiling of the MIPE4 collection as inhibitors of Plasmodium falciparum (DD2) proliferation (AID 743345)
- recorded-conditions: P. falciparum Dd2 in erythrocytes, SYBR Green DNA, 72 h; at 28.5 µM (top of the series) unless noted
metric: parasite growth remaining, % of DMSO control (lower = more inhibition)

Known results for molecules:
{"molecule": "Cc1ccccc1-n1c(Cn2cnc3c(N)ncnc32)nc2cccc(C)c2c1=O", "assay-result": "12.7%"}
{"molecule": "CC[C@@]1(O)C(=O)OCc2c1cc1n(c2=O)Cc2cc3ccccc3nc2-1", "assay-result": "12.9%"}
{"molecule": "CC[C@@H]1[C@@H](C)O[C@@](O)([C@@H](C)[C@H](O)[C@H](C)[C@H]2OC(=O)C=CC=C[C@@H](C)[C@@H]([C@@H](C)[C@@H](O)[C@H](C)[C@@]3(O)C[C@H](O[C@H]4C[C@H](O)[C@H](O)[C@H](C)O4)[C@H](CC)[C@@H](C)O3)OC(=O)C=CC=C[C@@H]2C)C[C@H]1O[C@H]1C[C@H](O)[C@H](O)[C@H](C)O1", "assay-result": "6.07%"}
{"molecule": "CCCN1CCO[C@@H]2c3cc(O)ccc3OC[C@@H]21", "assay-result": "99.7%"}
{"molecule": "CN(C)[C@@H]1C(=O)C(C(N)=O)=C(O)[C@@]2(O)C(=O)C3=C(O)c4c(O)cccc4[C@@](C)(O)[C@H]3[C@H](O)[C@@H]12", "assay-result": "45.1%"}
{"molecule": "C=C[C@@H]1CN2CCC1C[C@H]2[C@H](O)c1ccnc2ccccc12 (stereo partly drawn)", "assay-result": "10.8%"}
{"molecule": "CN[C@@H]1Cc2cccc3[nH]c(=O)n(c23)C1", "assay-result": "105%"}

Turning to the following molecule.
Requested read-out: parasite growth remaining, % of DMSO control (lower = more inhibition). Entry: `O=c1[nH]c2ccccc2n1C1CCN(Cc2ccc(-c3[nH]c4cc5ncnc5cc4nc3-c3ccccc3)cc2)CC1`
6.7%

Data credit: PubChem BioAssay (NCATS)
